quantity measured: melting point

I'd like to know its melting point. The molecule in question is `CCN(C)C(=O)c1cc(-c2ccc(OCCNS(C)(=O)=O)cc2)n(-c2ccc(OC)nc2)n1`
110 to 111 °C

Others:
Consider the molecule `COc1ccc(-n2nc(Cl)cc2-c2ccc(OCCO)cc2)cn1` and give its measured melting point.
136.5 to 138.2 °C

Next record, please: `COc1ccc(-n2nc(C3CC3)cc2-c2ccc(OCCNS(C)(=O)=O)cc2)cn1`
95 to 97 °C

Now the same for `COc1ccc(-n2nc(C#N)cc2-c2ccc(OCCO)cc2)cn1`
105 to 107 °C

Follow-up item: `CCOc1cc(-c2ccc(OCCNC(N)=O)cc2)n(-c2ccc(OC)nc2)n1`
133 to 138 °C

Consider next the molecule `CNS(=O)(=O)CCc1ccc(-c2cc(C(F)(F)F)nn2-c2ccc(OC)nc2)cc1` in the same way.
139 to 140 °C

Same lookup for `COc1ccc(-n2nc(OC)cc2-c2ccc(OCCNC(N)=S)cc2)cc1` , please.
141.6 to 142.3 °C

Follow-up entry: `COc1ccc(-n2nc(C(=O)C(C)C)cc2-c2ccc(CNS(C)(=O)=O)cc2)cn1`
160.8 to 161.2 °C

----------
compounds and their reported melting point

Fill blank: measured melting point of the compound `COc1ccc(-n2nc(C(F)(F)F)cc2-c2ccc(CCNS(N)(=O)=O)cc2)cn1` is ____.
114 to 115 °C

Also need `COc1ccc(-n2nc(C(F)(F)F)cc2-c2ccc(OCC(N)=O)cc2)cc1` , thanks.
168 to 169 °C

Now consider `COc1ccc(-n2nc(C#N)cc2-c2ccc(OCCO)cc2)cc1` .
91 to 92 °C

Same for `COc1ccc(-n2nc(C(C)C)cc2-c2ccc(OCCNS(C)(=O)=O)cc2)cn1`
96 to 97 °C

# repeat for `COc1ccc(-n2nc(C(=O)N3CCCCC3)cc2-c2ccc(OCCNS(C)(=O)=O)cc2)cn1`
158.8 to 159.1 °C

`COc1ccc(-n2nc(C(=O)C(C)C)cc2-c2ccc(OCCO)cc2)cn1` ?
108 to 109 °C

----------
# melting point per entry

Worked examples, 2 compounds total:
Please give the measured melting point for this compound: `CCOc1cc(-c2ccc(OCCNS(C)(=O)=O)cc2)n(-c2ccc(OC)nc2)n1`
122 to 122.6 °C

How about `COc1ccc(-n2nc(OC(C)C)cc2-c2ccc(OCCNC(N)=O)cc2)cc1` ?
139 to 140 °C

More entries:
Which melting point reading was recorded for the compound `COc1ccc(-n2nc(C(F)(F)F)cc2-c2ccc(CCOC(N)=O)cc2)cc1` ?
169 to 170 °C

----------
quantity measured: melting point

Some molecules with recorded melting point:
Look up melting point: `COc1ccc(-n2nc(C(=O)C3CC3)cc2-c2ccc(OCCO)cc2)cc1`
132 to 133 °C

Subsequent entry: `COc1ccc(-n2nc(C(=O)C(C)C)cc2-c2ccc(OCCNC(N)=O)cc2)cc1`
144 to 145 °C

// repeat for `COc1ccc(-n2nc(OC)cc2-c2ccc(OCCNS(C)(=O)=O)cc2)cc1` and report
103 to 104 °C

Request: `COc1ccc(-n2nc(C3CC3)cc2-c2ccc(OCCNS(C)(=O)=O)cc2)cc1`
166 to 168 °C

Do the same for `COc1ccc(-n2nc(OC)cc2-c2ccc(OCCO)cc2)cn1` please
92.2 to 92.5 °C

What do we get for `COc1ccc(-n2nc(C(F)(F)C(F)(F)F)cc2-c2ccc(CCO)cc2)cc1` ?
97 to 98 °C

Entry `CCOc1cc(-c2ccc(OCCNC(N)=O)cc2)n(-c2ccc(OC)cc2)n1` please
154.2 to 154.4 °C

// next record `COc1ccc(-n2nc(NC(=O)N(C)C)cc2-c2ccc(OCCO)cc2)cc1`
167.4 to 167.6 °C

Same for `COc1ccc(-n2nc(N(C)C(=O)N(C)C)cc2-c2ccc(OCCNC(N)=O)cc2)cc1`
158.6 to 159 °C

Further, for `CCN(C)C(=O)c1cc(-c2ccc(OCCNC(N)=O)cc2)n(-c2ccc(OC)nc2)n1` ?
146.3 to 146.7 °C

---
For the molecule shown here, `CNC(=O)NCCc1ccc(-c2cc(C(F)(F)F)nn2-c2ccc(OC)nc2)cc1` , give the reported melting point.
149 °C

Proceed to `COc1ccc(-n2nc(C(=O)C(C)C)cc2-c2ccc(OCCNS(C)(=O)=O)cc2)cn1`
155.6 to 155.8 °C

Same for `COc1ccc(-n2nc(C(C)C)cc2-c2ccc(OCCNC(N)=O)cc2)cc1`
100 to 104 °C

Query `COc1ccc(-n2nc(OC)cc2-c2ccc(CNS(C)(=O)=O)cc2)cc1` next
94 to 94.3 °C
